Molecular target: Luciferin 4-monooxygenase (Photinus pyralis)
Assay: firefly luciferase enzyme inhibitors, primary screen, biochemical, luminescence, purified enzyme, 2006 set (AID 1141);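 also: cell-free assay with purified firefly luciferase at 100 ng per well in PBS; test concentration not given here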
Conditions: SteadyGlo luminescence, 30 min, higher = more signal, called active from +8 up or from −8 down
Please enter satisfied where z-score is greater than or equal to -0.3, and not satisfied where it is lower.

COCCOC(=O)N1C(=O)[C@@]2(c3cc(C#CCC(C(=O)OC)C(=O)OC)ccc31)[C@H](C(=O)N1CCN(c3ncccn3)CC1)[C@H]1C(=O)O[C@H](c3ccccc3)[C@H](c3ccccc3)N1[C@@H]2c1ccccc1OCCO ... satisfied
CC(C)NC(=O)[C@@H]1c2ccccc2C(=O)N(C2Cc3ccccc3C2)[C@H]1c1ccc(CO)cc1 ... satisfied
COc1cc2c(cc1OC)CN(C(=O)[C@H]1[C@@H]3C(=O)O[C@@H](c4ccccc4)[C@@H](c4ccccc4)N3[C@@H](c3ccc(O)cc3)[C@]13C(=O)Nc1ccc(C#CCCO)cc13)CC2 ... satisfied
CCOC(=O)C[C@H]1[C@H](OC(=O)c2ccc(C(=O)c3ccccc3)cc2)[C@@H](NC(=O)CC(C)C)c2cc(OCCCO)ccc2N1C(=O)c1ccc2ccccc2n1 ... satisfied
CCOC(=O)C[C@H]1[C@H](OC(=O)c2ccc(C(=O)c3ccccc3)cc2)[C@@H](NC(=O)c2ccccc2)c2cc(OCCCO)ccc2N1C(=O)c1ccc2ccccc2n1 ... not satisfied
CCCC[C@H]1OB(O)C[C@H]2C1=C(COC)C[C@H]1C(=O)N(C)C(=O)[C@H]12 ... not satisfied

###

Assay: small-molecule microarray binders of probe aEGFR, primary screen, biochemical, biotinylated probe, 635/667 nm fluorescence (AID 1097);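 also: probe is a biotinylated anti-EGFR antibody binding compounds printed on slides; score combines fluorescence near 667 nm and signal to noise of each spot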
Conditions: higher = more signal
Please enter 1 (yes) where composite z-score is greater than or equal to 0.06, and 0 (no) where it is lower.

C=CC1(C(=O)OC)CC=C(C(=O)OC)CC1 (stereo unspecified) ... 0 (no)
COc1cc2c(cc1O)C(C1CC1)N(Cc1sc3ccccc3c1Cl)CC2 (stereo unspecified) ... 0 (no)
C=CCNC(=O)[C@H]1[C@@H]2C(=O)O[C@@H](c3ccccc3)[C@@H](c3ccccc3)N2[C@@H](c2ccccc2OCCO)[C@]12C(=O)Nc1ccc(C#CCCO)cc12 ... 0 (no)
O=C1C[C@@](C(=O)NCCN2CCOCC2)(c2ccc([N+](=O)[O-])cc2)[C@@H](c2ccc(CO)cc2I)N1CC12CC3CC(CC(C3)C1)C2 ... 0 (no)
CCCCCN1CC=CC23O[C@@H]4C=CCCOC(=O)C4[C@H]2C(=O)N(CCCCCO)[C@@H]3C1=O (stereo partly specified) ... 0 (no)
CCCC[C@@H]1C[C@H]1[C@@H](NC(=O)c1ccco1)c1ccccc1C(F)(F)F ... 1 (yes)
CC1(C)[C@@H]2CC(C(O)C3C=CC4C(=O)N(Cc5ccccc5)C(=O)C4N3n3cnnc3)=C[C@H]1C2 (stereo partly specified) ... 0 (no)
CC1(C)[C@@H]2CC(C(O)C3C=CC4C(=O)N(c5ccccc5)C(=O)C4N3Nc3ccc([N+](=O)[O-])cc3)=C[C@H]1C2 (stereo partly specified) ... 1 (yes)
C=CCN1C(=O)[C@]2(O[C@H](CCn3cc([C@H](O)c4ccccc4)nn3)[C@@H]([Si](C)(C)c3ccc(OC)cc3)[C@@H]2C)c2ccccc21 ... 0 (no)
O=C(NC1CC1)[C@@H]1c2ccccc2C(=O)N(Cc2ccccc2Cl)[C@H]1c1ccc(CO)cc1 ... 0 (no)
COCCOC(=O)N1C(=O)[C@@]2(c3cc(C#CCCO)ccc31)[C@H](C(N)=O)[C@H]1C(=O)O[C@H](c3ccccc3)[C@H](c3ccccc3)N1[C@@H]2c1ccc(O)cc1 ... 0 (no)
NC(=O)NCC#Cc1ccc2c(c1)[C@]1(C(=O)N2)[C@H](c2ccccc2OCCO)N2[C@H](c3ccccc3)[C@H](c3ccccc3)OC(=O)[C@H]2[C@@H]1C(=O)Nc1nc2ccccc2s1 ... 0 (no)
CC(C)C(O)C1C=CC2C(=O)N(c3ccccc3)C(=O)C2N1Nc1ccc([N+](=O)[O-])cc1 (stereo unspecified) ... 1 (yes)
CC(C)C(=C=CC[C@@H](O)c1ccc(OCCO)cc1)C[C@@H](O)COCc1ccccc1 ... 0 (no)
COC(=O)[C@@]1(Cc2ccccc2)N=C(c2ccc(OCCCO)cc2)O[C@H]1c1ccccc1 ... 0 (no)
O=C(CS)NCCCCCCNC(=O)[C@@H]1C[C@@H]2C(=O)N[C@@H](Cc3ccccc3)C(=O)N2[C@@H]1c1cccc(OCCO)c1 ... 1 (yes)
CCN(CC)c1ccc(N2CC=CC34O[C@@H]5C=CCCOC(=O)C5[C@H]3C(=O)N(CCCCCCO)[C@@H]4C2=O)cc1 (stereo partly specified) ... 0 (no)
CCC(CC)C(O)C1C=CC2C(=O)NC(=O)C2N1Nc1ccccn1 (stereo unspecified) ... 1 (yes)
COC(=O)[C@@]1(Cc2ccccc2)[C@H]2c3cc(C(=O)N(C)C)n(Cc4ccsc4Br)c3C[C@H]2CN1C(=O)c1ccccc1 ... 1 (yes)
CCCC[C@@H]1C[C@H]1[C@@H](NC(=O)C(C)(C)C)c1ccc(C(F)(F)F)cc1 ... 0 (no)
CCCc1cc2c(n1Cc1cc(F)cc(F)c1)C(C)C1CN(C(=O)c3ccccc3)C(C)(C(=O)OC)C21 (stereo unspecified) ... 1 (yes)
CNS(=O)(=O)c1ccc(C)cc1 ... 0 (no)
CC(C)CNC(=O)[C@@]1(Cc2ccccc2I)c2ccccc2C(=O)N(C2CCCCC2)[C@H]1c1ccc(CO)cc1 ... 0 (no)
C=CCN1C(=O)[C@]2(O[C@H](CCn3cc([C@H](O)c4ccccc4)nn3)[C@@H]([Si](C)(C)c3ccc(OC)cc3)[C@@H]2C)c2cc(N3CCC3=O)ccc21 ... 0 (no)
COC(=O)[C@@]1(CCS(=O)(=O)c2ccccc2)N=C(c2ccc(OCCCO)cc2)O[C@H]1c1ccccc1CN=[N+]=[N-] ... 1 (yes)
COC(=O)[C@@]1(Cc2ccc(F)cc2)[C@H]2c3cc(C(=O)N4CCCC4)n(Cc4ccc(S(C)(=O)=O)cc4)c3C[C@H]2CN1C(=O)c1ccccc1 ... 1 (yes)

###

Experiment: CREB reporter modulators without forskolin, primary screen, cell-based, PC12, CRE-LacZ reporter, unstimulated (AID 1145)
Settings: no forskolin, luminescence, 4.5 h, higher = more signal, called active from +8 up or from −8 down
Below, each entry is listed with its recorded z-score.
OUTCOME_MEASURE: z-score

O=C1N(Cc2ccccc2)c2ccccc2[C@@H]2OC(c3ccc(OCCCO)cc3)=N[C@]12CCS(=O)(=O)c1ccccc1 ... 3.13
C=CCC(OC(C)=O)[C@@H]1[C@@H](N(Cc2ccc(-c3ccccc3)cc2)C(=O)Cc2ccc(OC)cc2)c2cc(OCCCO)ccc2N1C(=O)Cc1ccc2ccccc2c1 (stereo partly drawn) ... 0.745
NC(=O)NCC#Cc1ccc2c(c1)[C@]1(C(=O)N2)[C@H](c2ccc(O)cc2)N2[C@H](c3ccccc3)[C@H](c3ccccc3)OC(=O)[C@H]2[C@@H]1C(=O)O ... 0.895

###

Experiment: MM1S myeloma cell viability, profiling panel, resazurin fluorescence, basal, 24 h, PK04 Diversity Set (AID 1174);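 also: MM1S multiple myeloma cell line; test concentration not given here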
Conditions: higher = more signal, called active from +8 up or from −8 down
Below, each entry is listed with its recorded z-score.
OUTCOME_MEASURE: z-score

COCCCNC(=O)[C@@H]1c2ccccc2C(=O)N(Cc2ccccc2Cl)[C@H]1c1ccc(CO)cc1 ... 0.655
C=CC1(C(=O)OC)CC=C(C(=O)OC)CC1 (stereo not drawn) ... 0.501
COC(=O)C[C@H]1O[C@]2(C(=O)N(C)c3ccccc32)[C@@H](C)[C@@H]1[Si](C)(C)F ... 1.55
C=C(COC)/C(=C/C[C@@H](OC(C)=O)c1ccc(OCCO)cc1)c1cnc2ccccc2c1 ... 0.748
CN1C=C(C(=O)OCCS(C)(=O)=O)C(C(=O)OCCS(C)(=O)=O)=CC(c2ccc(CO)cc2)=CC1C1CC1 (stereo not drawn) ... -0.83
O=C(NCCN1CCOCC1)[C@@H]1c2ccccc2C(=O)N(C2CCCCC2)[C@H]1c1ccc(CO)cc1 ... 0.528
CC(=O)n1cc(C(O)C2C=CC3C(=O)N(c4ccccc4)C(=O)C3N2Nc2ccc([N+](=O)[O-])cc2)c2ccccc21 (stereo not drawn) ... -1.15
CCCCCN1CC=CC23O[C@@H]4/C=C\CCC(C)OC(=O)C4[C@H]2C(=O)N(C(C)CO)[C@@H]3C1=O (stereo partly drawn) ... -0.139

###

Test: PSAC antagonists in infected red cells, primary screen, cell-based, P. falciparum Indochina, OD700, 18 h (AID 1157)
Details: P. falciparum Indochina infected erythrocytes, osmotic lysis OD700, 18 h; higher = more signal, called active from +8 up or from −8 down
Please enter MET where z-score is greater than or equal to 0.3, and NOT MET where it is lower.

COc1ccc(C#Cc2ccc3c(c2)[C@]2(C(=O)N3)[C@H](C(=O)NC[C@H](O)c3ccccc3)[C@H]3C(=O)O[C@H](c4ccccc4)[C@H](c4ccccc4)N3[C@@H]2c2ccc(O)cc2)cc1 ... MET
[N-]=[N+]=NCc1ccccc1[C@@H]1OC(c2ccc(OCCCO)cc2)=N[C@]1(Cc1ccccc1)C(N)=O ... MET
O=C(NCCN1CCOCC1)C1N=C(c2ccc(OCCCO)cc2)N(c2ccccc2)O1 (stereo unspecified) ... MET
CCCc1cc2c(n1Cc1cc(F)cc(F)c1)C(C)C1CN(C(=O)c3ccccc3)C(C)(C(=O)OC)C21 (stereo unspecified) ... NOT MET
C=C(CCCC)/C(=C/C[C@@H](OC(=O)c1ccncc1)c1ccc(OCCO)cc1)c1cc(C(=O)OC)ccc1OC ... MET
CNS(=O)(=O)c1ccc(C)cc1 ... NOT MET
CCCCN1CC=CC23O[C@@H]4C=CCCOC(=O)C4[C@H]2C(=O)N(CCCCCCO)[C@@H]3C1=O (stereo partly specified) ... NOT MET
O=C1O[C@@H](c2ccccc2)[C@@H](c2ccccc2)N2[C@@H](c3ccccc3OCCO)[C@]3(C(=O)Nc4ccccc43)[C@@H](C(=O)Nc3nc4ccccc4s3)[C@H]12 ... NOT MET
COc1cc(COC(C)=O)ccc1OC(C)=O ... NOT MET
C=C[C@H](CO)NS(=O)(=O)c1ccc(Br)cc1 ... MET
CC1CC/C=C\[C@H]2OC34C=CCN(C(C)(C)C)C(=O)[C@H]3N(C(C)CO)C(=O)[C@@H]4C2C(=O)O1 (stereo partly specified) ... MET
NCCCCCCNC(=O)[C@@H]1C[C@@H]2C(=O)NCC(=O)N2[C@@H]1c1ccc(O)cc1 ... MET
CN1C(=O)C2C=CC(C(O)c3ccc([N+](=O)[O-])cc3)N(N3CCCCC3)C2C1=O (stereo unspecified) ... MET
COc1cccc(-c2cccc(=O)o2)c1 ... MET
C=CCOC(=O)[C@H]1[C@@H]2C(=O)O[C@@H](c3ccccc3)[C@@H](c3ccccc3)N2[C@@H](c2ccc(OCCOC(=O)[C@H]3C[C@H]4C(=O)N[C@@H](CCCC[N+](C)(C)C)C(=O)N4[C@H]3c3ccc(O)cc3)cc2)[C@]12C(=O)Nc1ccc(I)cc12 ... NOT MET
